# System: quiescent IMR-90 human lung fibroblasts
# Protocol text: cells
# Particulars: Homo sapiens, IMR-90, 48 h, read-out: IC50, 48 hours
Value type: IC50

Fill in: IC50 on quiescent IMR-90 human lung fibroblasts, entry C[C@@H]1C[C@@H]([C@H](O)CC2CC(=O)NC(=O)C2)C(=O)[C@@H](C)C1 [cycloheximide]
> 10 µM

---

# Tested on: quiescent IMR-90 human lung fibroblasts
# Protocol text: cells
# Particulars: read-out: IC50, 48 hours; quiescent IMR-90 human lung fibroblasts, 48 hours incubation
*1 amine or outer side, *2 acyl side, *3 side chain or, on linkers, in order; H or OH if unused. Where a SMILES comes first, the peptide text is derived from it. Bridges are numbered along the chain shown (N, C = ends). Roman numbers before positions name the chains, in order. [ ]: non-standard residue; d: D form. Actinocin(9to1) = Cc1c2oc3c(C)ccc(C(=O)[*:1])c3nc-2c(C(=O)[*:2])c(N)c1=O; NMeV = CN[C@H](C(=O)O)C(C)C; Sar = CNCC(=O)O
Value type: IC50

Consider the reported IC50 for these compounds:
O=C1[O][Pt]2([NH][C@@H]3CCCC[C@H]3[NH]2)[O]C1=O [Oxaliplatin, oxaliplatin] :: > 10 µM
O=c1[nH]cc(F)c(=O)[nH]1 [5-FU, 5-fluorouricil] :: > 10 µM
CO[C@@]12[C@H](COC(N)=O)C3=C(C(=O)C(C)=C(N)C3=O)N1C[C@@H]1N[C@@H]12 [Mitomycin C, mitomycin C] :: > 10 µM

Fill in: IC50 on quiescent IMR-90 human lung fibroblasts, entry Cc1c2oc3c(C)ccc(C(=O)N[C@@H]4C(=O)N[C@H](C(C)C)C(=O)N5CCC[C@H]5C(=O)N(C)CC(=O)N(C)[C@@H](C(C)C)C(=O)O[C@@H]4C)c3nc-2c(C(=O)N[C@@H]2C(=O)N[C@H](C(C)C)C(=O)N3CCC[C@H]3C(=O)N(C)CC(=O)N(C)[C@@H](C(C)C)C(=O)O[C@@H]2C)c(N)c1=O [Atinomycin D, actinomycin D] (I: T[dV]P[Sar][NMeV] / II: T[dV]P[Sar][NMeV]; ester I:1-I:C, II:1-II:C; linker I:N-II:N via Actinocin(9to1))
> 10 µM

Fill in: IC50 on quiescent IMR-90 human lung fibroblasts, entry CCc1c2c(nc3ccc(O)cc13)-c1cc3c(c(=O)n1C2)COC(=O)[C@]3(O)CC [SN-38]
8 µM

---

# Tested on: quiescent IMR-90 human lung fibroblasts
# Protocol text: cells
# Particulars: Homo sapiens, IMR-90, 72 h, read-out: IC50, 72 hours
pIC50: −log10 of the molar value.
Value type: pIC50

Return pIC50 (reported value) for this compound: C[C@@H]1C[C@@H]([C@H](O)CC2CC(=O)NC(=O)C2)C(=O)[C@@H](C)C1 [cycloheximide]
< 5.00
